# System Tested: AR-LBD fused to Gal4-DBD (co-expressed with full-length AR) (Homo sapiens, UniProt P10275)
# Construct: the following primers were used for the amplification of the LBD region
# Sequence (P10275 669-900 limits assumed): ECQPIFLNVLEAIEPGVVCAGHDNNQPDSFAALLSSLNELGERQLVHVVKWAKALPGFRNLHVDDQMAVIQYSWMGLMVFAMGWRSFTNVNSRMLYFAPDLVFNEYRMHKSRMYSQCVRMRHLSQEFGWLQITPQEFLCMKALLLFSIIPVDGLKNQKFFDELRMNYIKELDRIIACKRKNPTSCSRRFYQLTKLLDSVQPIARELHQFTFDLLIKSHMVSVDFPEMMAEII
# Method: U2OS-AR-LBD/9xGal4UAS luciferase reporter cell line
Value Type: pIC50
Please express pIC50 as -log10 of the molar concentration.

Per the records, this molecule ( CCC(=O)[C@@]1(C)CC[C@H]2[C@@H]3CCC4=CC(=O)CCC4=C3CC[C@@]21C [Promegestone (R5020), promegestone] ) has pIC50 equal to 6.39

###

# System Tested: human MR (full-length) (Homo sapiens)
# Construct: expression vectors encoding full-length steroid receptors: pcDNA3-hAR, pcDNA3-hGR and pcDNA3-hMR; expressed in transfected cells; host or cells: U2OS
# Sequence (P08235 1-984): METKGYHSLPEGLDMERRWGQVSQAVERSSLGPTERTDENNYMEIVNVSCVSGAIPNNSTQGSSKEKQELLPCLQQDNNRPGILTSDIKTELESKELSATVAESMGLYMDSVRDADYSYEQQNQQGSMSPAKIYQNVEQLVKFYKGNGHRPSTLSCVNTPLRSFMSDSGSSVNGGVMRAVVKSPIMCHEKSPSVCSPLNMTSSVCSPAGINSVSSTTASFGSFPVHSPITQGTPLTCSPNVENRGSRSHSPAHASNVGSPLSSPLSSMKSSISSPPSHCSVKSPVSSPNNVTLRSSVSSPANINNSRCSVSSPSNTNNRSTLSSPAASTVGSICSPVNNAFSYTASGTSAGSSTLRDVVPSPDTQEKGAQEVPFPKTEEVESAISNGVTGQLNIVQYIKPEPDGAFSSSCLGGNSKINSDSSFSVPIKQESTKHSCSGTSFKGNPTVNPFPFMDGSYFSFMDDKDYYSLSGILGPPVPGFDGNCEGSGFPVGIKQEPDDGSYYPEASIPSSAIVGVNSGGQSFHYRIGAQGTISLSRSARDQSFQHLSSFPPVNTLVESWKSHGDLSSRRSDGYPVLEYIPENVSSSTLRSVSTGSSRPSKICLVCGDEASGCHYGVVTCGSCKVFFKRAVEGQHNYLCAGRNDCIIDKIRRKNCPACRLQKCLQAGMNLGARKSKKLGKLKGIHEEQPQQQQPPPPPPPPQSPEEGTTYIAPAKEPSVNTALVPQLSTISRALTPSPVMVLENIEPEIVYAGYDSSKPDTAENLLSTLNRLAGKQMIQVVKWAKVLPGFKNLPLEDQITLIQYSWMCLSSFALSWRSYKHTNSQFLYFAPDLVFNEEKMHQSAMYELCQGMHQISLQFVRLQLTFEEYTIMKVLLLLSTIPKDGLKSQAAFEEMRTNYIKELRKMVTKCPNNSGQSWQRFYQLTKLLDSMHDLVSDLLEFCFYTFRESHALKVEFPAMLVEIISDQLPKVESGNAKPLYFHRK
# Method: U2OS-MR/MMTV luciferase reporter cell line (full-length receptor)
# Assay type: cell-based
# Condition Summary: read-out: Log EC50 (converted)
Counter-ions that a name gives are not always drawn.
Each entry below lists one item and its recorded EC50 value.

These recorded examples may help you get a feel for the data.
C[C@]12C=CC(=O)C=C1CC[C@H]1[C@@H]3C[C@@H](O)[C@](O)(C(=O)CO)[C@@]3(C)C[C@H](O)[C@@]12F :: 0.186 µM
CC/C(=C(\c1ccccc1)c1ccc(OCCN(C)C)cc1)c1ccccc1 [Tamoxifen citrate, tamoxifen citrate] :: > 10 µM
CC1(C)NC(=O)N(c2ccc([N+](=O)[O-])c(C(F)(F)F)c2)C1=O [Nilutamide, nilutamide] :: > 10 µM
CCCc1c(-c2ccc(O)cc2)nn(-c2ccc(O)cc2)c1-c1ccc(O)cc1 :: > 10 µM

Case C[C@]12CCC(=O)C=C1CC[C@@H]1[C@@H]2[C@@H](O)C[C@@]2(C)[C@H]1CC[C@]2(O)C(=O)CO , human MR (full-length) (Homo sapiens), EC50 recorded as 0.00631 µM

Observed EC50 on human MR (full-length) (Homo sapiens), entry O=C(c1ccc(OCCN2CCCCC2)cc1)c1c(-c2ccc(O)cc2)sc2cc(O)ccc12 [Raloxifene hydrochloride, raloxifene hydrochloride] , equals > 10 µM

The compound CC/C(=C(/CC)c1ccc(O)cc1)c1ccc(O)cc1 on human MR (full-length) (Homo sapiens): EC50 was > 10 µM
